Biological target: Mannose-6-phosphate isomerase (Homo sapiens) (UniProt P34949)
Sequence (P34949 whole entry, looked up): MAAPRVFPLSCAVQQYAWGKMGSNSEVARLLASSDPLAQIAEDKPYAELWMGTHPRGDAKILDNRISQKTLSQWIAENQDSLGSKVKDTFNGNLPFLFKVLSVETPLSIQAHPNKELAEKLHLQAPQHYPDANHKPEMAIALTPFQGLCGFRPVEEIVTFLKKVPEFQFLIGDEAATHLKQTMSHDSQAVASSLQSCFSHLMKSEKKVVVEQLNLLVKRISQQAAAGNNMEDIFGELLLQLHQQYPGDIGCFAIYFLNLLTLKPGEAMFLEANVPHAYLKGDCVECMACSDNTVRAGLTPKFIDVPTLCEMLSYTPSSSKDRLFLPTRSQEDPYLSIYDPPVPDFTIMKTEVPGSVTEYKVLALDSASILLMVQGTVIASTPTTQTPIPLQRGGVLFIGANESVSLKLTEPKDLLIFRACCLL
Assay: MPI inhibition at elevated mannose 6-phosphate – biochemical, fluorescence intensity, high mannose 6-phosphate, primary screen (AID 1220)
Conditions: recombinant PMI enzyme, coupled fluorescence intensity; at 20 µM; stronger effect = higher value
About 1,300 (0.68%) of roughly 190,000 compounds were called active. The sample as a whole holds a higher share of actives than the screen did.
Tick Met if inhibition is 10% or greater. Tick Not met if inhibition is less than 10%.

stdin: Is reported inhibition greater than or equal to 10% here: `CC1(C)CC(=O)C=C(Nc2ccccc2O)C1`
stdout: Not met

stdin: Is reported inhibition greater than or equal to 10% here: `O=C1C=C(Nc2ccccc2)C(=O)c2ccccc21`
stdout: Met

stdin: Is reported inhibition greater than or equal to 10% here: COCCN1CCCC(CNCc2cn(C)nc2-c2ccc(Oc3ccccc3)cc2)C1 (configuration not stated)
stdout: Met

stdin: Is reported inhibition greater than or equal to 10% here: `O=C1C=C(Nc2ccccc2)c2ccccc2C1=O`
stdout: Met

stdin: Is reported inhibition greater than or equal to 10% here: `O=C1C=C(Nc2ccccc2O)c2ccccc2C1=O`
stdout: Met

stdin: Is reported inhibition greater than or equal to 10% here: `CC1=CC(=O)c2ccccc2C1=O`
stdout: Not met

stdin: Is reported inhibition greater than or equal to 10% here: `O=C1C(Nc2ccccc2)=C/C(=N/S(=O)(=O)c2cccs2)c2ccccc21`
stdout: Met

stdin: Is reported inhibition greater than or equal to 10% here: `Cc1ccc2c(Cl)cc(Cl)c(OCC(=O)N3CCCC3)c2n1`
stdout: Met

stdin: Is reported inhibition greater than or equal to 10% here: `CCOc1ccc(N=C2Sc3nc4ccc(C)cc4cc3CN2CCOC)cc1`
stdout: Not met

stdin: Is reported inhibition greater than or equal to 10% here: `COc1ccccc1N1CCN(c2cnccn2)CC1`
stdout: Not met

Just for reference, PubChem BioAssay AID1220 is where these values come from.
